B1: SLC35F2 (parent)
chain: FVAFALCMFCLYSFMPLVIKVTSA

# Variants of: B1
# test.summary: protein stability index of a GFP-peptide fusion (GPS, HEK-293T) (PSI 1-6); higher = more stable;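 note: lentivirally expressed fusions sorted by FACS into six bins by GFP to DsRed ratio, PSI derived from sequencing read proportions per bin multiplied by bin number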
# condition.details: c terminus: a fixed tail appended
Measured protein stability index by item

mutation.code: L11T
protein stability index: 2.43
//
mutation.code: P16R
protein stability index: 2.79
//
mutation.code: F14K
protein stability index: 2.77
//
mutation.code: C10F
protein stability index: 3.07
//
mutation.code: L11I
protein stability index: 3.19
//
mutation.code: T22L
protein stability index: 3.31
//
mutation.code: F1L
protein stability index: 3.61
//
mutation.code: M15Y
protein stability index: 3.23
//
mutation.code: T22Y
protein stability index: 2.75
//
mutation.code: L11G
protein stability index: 2.39
//
mutation.code: C7E
protein stability index: 2.19
//
mutation.code: F4Q
protein stability index: 2.23
//
mutation.code: S13Y
protein stability index: 2.33
//
mutation.code: A5C
protein stability index: 2.67
//
mutation.code: F14A
protein stability index: 2.78
//
mutation.code: V2Q
protein stability index: 2.65
//
mutation.code: F9M
protein stability index: 3.23
//
mutation.code: S13T
protein stability index: 2.97
//
mutation.code: A24R
protein stability index: 1.84
//
mutation.code: L11P
protein stability index: 1.84
//
mutation.code: M8K
protein stability index: 2.51
//
mutation.code: M15F
protein stability index: 3.1
//
mutation.code: Y12T
protein stability index: 2.68
//
mutation.code: I19S
protein stability index: 2.42
//
mutation.code: L6P
protein stability index: 2.79
//
mutation.code: A5S
protein stability index: 3.44
//
mutation.code: F4G
protein stability index: 2.87
//
mutation.code: S13H
protein stability index: 3.26
//
mutation.code: P16V
protein stability index: 1.69
//
mutation.code: L17Q
protein stability index: 3.99
//
mutation.code: A5W
protein stability index: 3.11
//
mutation.code: K20P
protein stability index: 2.56
//
mutation.code: C7D
protein stability index: 3.08
//
mutation.code: F14D
protein stability index: 3.53
//
mutation.code: F1K
protein stability index: 2.5
//
mutation.code: V21H
protein stability index: 2.9
//
mutation.code: P16H
protein stability index: 3.01
//
mutation.code: F14Y
protein stability index: 2.41
//
mutation.code: Y12H
protein stability index: 2.47
//
mutation.code: V18G
protein stability index: 3.68
//
mutation.code: V21E
protein stability index: 3.06
//
mutation.code: L11Q
protein stability index: 3.66
//
mutation.code: L6E
protein stability index: 2.43
//
mutation.code: A24L
protein stability index: 3.27
//
mutation.code: C7H
protein stability index: 3.27
//
mutation.code: F14W
protein stability index: 3.16
//
mutation.code: M15P
protein stability index: 4.92
//
mutation.code: F9R
protein stability index: 3.23
//
mutation.code: Y12I
protein stability index: 2.31
//
mutation.code: L6F
protein stability index: 2.84
//
mutation.code: M8H
protein stability index: 2.8
//
mutation.code: A3V
protein stability index: 3.02
//
mutation.code: L17A
protein stability index: 2.46
//
mutation.code: F14G
protein stability index: 3.38
//
mutation.code: F4K
protein stability index: 2.01
//
mutation.code: V2R
protein stability index: 2.37
//
mutation.code: A5Y
protein stability index: 2.58
//
mutation.code: S23Y
protein stability index: 2.03
//
mutation.code: A24W
protein stability index: 3.16
//
mutation.code: V18N
protein stability index: 3.17
//
mutation.code: F4P
protein stability index: 4.46
//
mutation.code: V18P
protein stability index: 3.36
//
mutation.code: S23C
protein stability index: 2.9
//
mutation.code: M8T
protein stability index: 2.72
//
mutation.code: L6H
protein stability index: 3.22
//
mutation.code: P16Q
protein stability index: 2.65
//
mutation.code: M8I
protein stability index: 2.88
//
mutation.code: P16K
protein stability index: 2.06
//
mutation.code: L17N
protein stability index: 1.58
//
mutation.code: T22E
protein stability index: 3.47
//
mutation.code: Y12A
protein stability index: 3.98
//
mutation.code: A5P
protein stability index: 2.62
//
mutation.code: T22P
protein stability index: 3.35
//
mutation.code: M8W
protein stability index: 3.65
//
mutation.code: A5N
protein stability index: 1.4
//
mutation.code: M15K
protein stability index: 3.67
//
mutation.code: L6V
protein stability index: 2.13
//
mutation.code: Y12P
protein stability index: 2.25
//
mutation.code: A5H
protein stability index: 2.52
//
mutation.code: V18T
protein stability index: 2.57
//
mutation.code: V18D
protein stability index: 3.27
//
mutation.code: Y12K
protein stability index: 2.74
//
mutation.code: P16I
protein stability index: 2.99
//
mutation.code: L6N
protein stability index: 3.13
//
mutation.code: F1T
protein stability index: 2.5
//
mutation.code: A5K
protein stability index: 2.58
//
mutation.code: L17M
protein stability index: 3.65
//
mutation.code: S13N
protein stability index: 3.33
//
mutation.code: V2T
protein stability index: 4.03
//
mutation.code: V21I
protein stability index: 2.6
//
mutation.code: V18K
protein stability index: 2.63
